Values were extracted from ChEMBL document CHEMBL3885881.

species: Rattus norvegicus; assay: DrugMatrix - Regimen: Daily Repeat; format: toxicity, organism-based, Sprague-Dawley; parameters: regimen Daily Repeat, gender Male, age 6-8 weeks; details: in vivo, po, 0 mg/kg, 120 h, tissue Blood, route oral GAVAGE, dose level Control, time 5 day, vehicle .5 % CMC
# maps each entry to its ABSOLUTE LYMPHOCYTE

MOLECULE: CN(C)C(=O)C(CCN1CCC(O)(c2ccc(Cl)cc2)CC1)(c1ccccc1)c1ccccc1 [LOPERAMIDE]
ABSOLUTE LYMPHOCYTE: 13283.17 CELLS/uL

MOLECULE: CN(C)CCN(Cc1cccs1)c1ccccn1
ABSOLUTE LYMPHOCYTE: 13400 cells/µL

MOLECULE: C[C@H]1[C@H](NC(=O)/C(=N\OC(C)(C)C(=O)O)c2csc(N)n2)C(=O)N1S(=O)(=O)O [AZTREONAM]
ABSOLUTE LYMPHOCYTE: 16020.5 CELLS/uL

MOLECULE: C[C@@](Cc1ccc(O)c(O)c1)(NN)C(=O)O.O [CARBIDOPA]
ABSOLUTE LYMPHOCYTE: 16020.5 CELLS/uL

MOLECULE: NC(=O)N1c2ccccc2CC(=O)c2ccccc21 [OXCARBAZEPINE]
ABSOLUTE LYMPHOCYTE: 14943.67 CELLS/uL

MOLECULE: C[C@]12CC[C@@H]3c4ccc(O)cc4CC[C@H]3[C@@H]1C[C@@H](O)[C@@H]2O [ESTRIOL]
ABSOLUTE LYMPHOCYTE: 13632.83 CELLS/uL

----------
# maps each entry to its POTASSIUM
species: Rattus norvegicus; test: DrugMatrix - Regimen: Daily Repeat; assay type: toxicity, organism-based, Sprague-Dawley; parameters: regimen Daily Repeat, gender Male, age 6-8 weeks; conditions: in vivo, po, 0 mg/kg, 120 h, tissue Plasma, route oral GAVAGE, dose level Control, time 5 day, […]
OBSERVABLE: POTASSIUM (MEQ/L)

COMPOUND: CC(C)c1c(C(=O)Nc2ccccc2)c(-c2ccccc2)c(-c2ccc(F)cc2)n1CC[C@@H](O)C[C@@H](O)CC(=O)O
OBSERVABLE: POTASSIUM
MEASUREMENT UNIT: MEQ/L
NUMBER: 5.72
//
COMPOUND: CCc1ccc(CCOc2ccc(CC3SC(=O)NC3=O)cc2)nc1 (centres undefined)
OBSERVABLE: POTASSIUM
MEASUREMENT UNIT: MEQ/L
NUMBER: 5.14
//
COMPOUND: CS(=O)(=O)Nc1ccc([N+](=O)[O-])cc1Oc1ccccc1 [NIMESULIDE]
OBSERVABLE: POTASSIUM
MEASUREMENT UNIT: MEQ/L
NUMBER: 5.18
//
COMPOUND: O=c1c(-c2ccc(O)cc2)coc2cc(O)cc(O)c12
OBSERVABLE: POTASSIUM
MEASUREMENT UNIT: MEQ/L
NUMBER: 5.72

----------
# maps each entry to its CHOLESTEROL
species: Rattus norvegicus; experiment: DrugMatrix - Regimen: Daily Repeat; format: toxicity, organism-based, Sprague-Dawley; design: regimen Daily Repeat, gender Male, age 6-8 weeks; details: in vivo, po, 0 mg/kg, 120 h, tissue Plasma, route oral GAVAGE, dose level Control, time 5 day, vehicle 100 % WATER

COMPOUND: NC(=O)c1cccnc1 [NIACINAMIDE]
CHOLESTEROL [mg/dL]: 71.33

COMPOUND: CN(C)C(=O)Oc1cccc([N+](C)(C)C)c1.[Br-] [NEOSTIGMINE BROMIDE]
CHOLESTEROL [mg/dL]: 71.5

COMPOUND: CCCC(C)C1(CC)C(=O)NC(=O)NC1=O (configuration not stated)
CHOLESTEROL [mg/dL]: 71.5

COMPOUND: CCN(CC)CCOC(=O)C1(C2CCCCC2)CCCCC1
CHOLESTEROL [mg/dL]: 65.5

COMPOUND: CNC1=Nc2ccc(Cl)cc2C(c2ccccc2)=[N+]([O-])C1 [CHLORDIAZEPOXIDE]
CHOLESTEROL [mg/dL]: 60.67

COMPOUND: NC12CC3CC(CC(C3)C1)C2
CHOLESTEROL [mg/dL]: 72.17

COMPOUND: CCN(C(C)=O)c1cccc(-c2ccnc3c(C#N)cnn23)c1
CHOLESTEROL [mg/dL]: 72.17
